Measured GI50, listed per entry for reference.
System: TK-10
assay: NCI tumour cell line growth inhibition, 48 h
Active and inactive are the calls of the source. No stated cut-off is given here; in the data, active = GI50 up to about 1.1 µM and inactive = higher. Where a SMILES comes first, the peptide text is derived from it. The star is where a group is joined. Boc = CC(C)(C)OC(=O)*

[
  {
    "molecule": "Nc1nc2cc(CNc3ccc(C(=O)NC(CCC(=O)O)C(=O)O)cc3)ccc2nc1-c1ccccc1 (stereo not given)",
    "GI50": "> 10 µM (inactive)"
  },
  {
    "molecule": "O=C(NC1CCN(Cc2ccccc2)CC1)c1cccc(I)c1",
    "GI50": "22.8 µM (inactive)"
  },
  {
    "molecule": "O=C(NN=C1NCCN1)c1ccco1",
    "GI50": "> 100 µM (inactive)"
  },
  {
    "molecule": "Cc1ccc([N+](=O)[O-])c2c(NCCNC(=O)c3cc(C(=O)NCCNc4ccnc5c(C)ccc([N+](=O)[O-])c45)n(C)n3)ccnc12",
    "GI50": "> 80.7 µM (inactive)"
  },
  {
    "molecule": "CCCCc1ccc(Nc2nc(S)c3[nH]cnc3n2)cc1",
    "GI50": "20.6 µM (inactive)"
  },
  {
    "molecule": "COC(=O)c1nn2ccc3ccccc3c2c1C(=O)OC",
    "GI50": "> 100 µM (inactive)"
  },
  {
    "molecule": "CO[C@@H]1C[C@H]2[C@@H]3CC[C@H]([C@@H](C)CO)[C@@]3(C)CC[C@@H]2[C@@]2(C)CC[C@H]3C[C@]312",
    "GI50": "> 100 µM (inactive)"
  },
  {
    "molecule": "O=C(c1ccccc1)c1nc2ccc(Cl)cc2c2c1CCCO2",
    "GI50": "> 100 µM (inactive)"
  },
  {
    "molecule": "COc1cc(O)c2c(=O)cc(C3(O)C=CC(=O)C=C3)oc2c1",
    "GI50": "0.0658 µM (active)"
  },
  {
    "molecule": "CC1C2CC(CC2O)C1(C)C (stereo not given)",
    "GI50": "> 100 µM (inactive)"
  },
  {
    "molecule": "CC(=O)OCC(OC(C)=O)C(OC(C)=O)C(/C=N/N(C(C)=O)S(=O)(=O)c1ccc(/C=C2\\NC(=O)NC2=O)cc1)OC(C)=O (stereo not given)",
    "GI50": "> 100 µM (inactive)"
  },
  {
    "molecule": "Cc1ccc(C2=CC(=O)OC(C[P+](c3ccccc3)(c3ccccc3)c3ccccc3)(c3ccccc3)O2)cc1 (stereo not given)",
    "GI50": "20.1 µM (inactive)"
  },
  {
    "molecule": "CC1=C(C)C(=O)C2=C(OCCCO2)C1=O",
    "GI50": "> 10 µM (inactive)"
  },
  {
    "molecule": "CN(C)/C(N)=N\\C#N",
    "GI50": "> 100 µM (inactive)"
  },
  {
    "molecule": "O=C(O)CC1OCC=C2CN3CCC45c6ccccc6NC4C1C2CC35 (stereo not given)",
    "GI50": "> 100 µM (inactive)"
  },
  {
    "molecule": "CCN(c1ccccc1)[C@H]1C(=O)N(c2ccc([N+](=O)[O-])cc2)[C@H]1c1ccc(OC)cc1",
    "GI50": "> 100 µM (inactive)"
  },
  {
    "molecule": "CCOC(=O)/C(C#N)=C/N(CC)/N=C/c1ccccc1",
    "GI50": "> 100 µM (inactive)"
  },
  {
    "molecule": "COc1cccc2c1C(=O)C1=C(C2=O)C(O)CC(C)(C)O1 (stereo not given)",
    "GI50": "> 100 µM (inactive)"
  },
  {
    "molecule": "CC(C)(C)[Si](C)(C)OCC1CCC(n2cnc3c(=O)[nH]cnc32)O1 (stereo not given)",
    "GI50": "> 100 µM (inactive)"
  },
  {
    "molecule": "O=C(c1cccs1)N(C(=S)N1CCN(c2ccccn2)CC1)C1CCCCC1",
    "GI50": "> 100 µM (inactive)"
  },
  {
    "molecule": "CCNC1=C(NC(=O)CCl)C(=O)c2ccccc2C1=O",
    "GI50": "17.7 µM (inactive)"
  },
  {
    "molecule": "CCOC(=O)C(NC(=O)C(CCCCNP(=O)(OCC)OCC)NC(=O)C(C)NC(C)=O)C(C)C (stereo not given)",
    "GI50": "> 100 µM (inactive)"
  },
  {
    "molecule": "COC(=O)C1CC(C=[N+](C)C)=C(SC)N1C(=O)OCc1ccccc1 (stereo not given)",
    "GI50": "> 100 µM (inactive)"
  },
  {
    "molecule": "Cc1c2cc[n+](C)cc2c(C)c2c1[nH]c1ccc(OC(C)C)cc12",
    "GI50": "39.3 µM (inactive)"
  },
  {
    "molecule": "NCCCC(N)C(=O)O (stereo not given)",
    "GI50": "> 100 µM (inactive)"
  },
  {
    "molecule": "CCCCCCCC(CC(=O)NC(CO)C(=O)NC(CO)CC(C)C)OC(=O)CC(CCCCCCC)OC(=O)CC(CCCCCCC)OC1OC(C)C(O)C(OC2OC(C)C(O)C(O)C2O)C1O (stereo not given)",
    "GI50": "16.5 µM (inactive)"
  },
  {
    "molecule": "CC(=O)NS(=O)(=O)c1ccc(NCc2cccc3c(=O)c4ccc(Cl)cc4oc23)cc1",
    "GI50": "> 63.4 µM (inactive)"
  },
  {
    "molecule": "Cc1nnc(Sc2nc(C#N)c(C#N)nc2Sc2nnc(C)s2)s1",
    "GI50": "11.1 µM (inactive)"
  },
  {
    "molecule": "CC(=O)c1ccc2c(ccc(=O)n2C)c1",
    "GI50": "> 100 µM (inactive)"
  },
  {
    "molecule": "CN(C)C(=S)/N=c1\\ss/c(=N/c2ccccc2)n1C",
    "GI50": "> 100 µM (inactive)"
  },
  {
    "molecule": "N#C/C(c1nc2ccccc2[nH]1)=c1\\s/c(=C/c2ccccc2)c(=O)n1-c1ccccc1",
    "GI50": "> 100 µM (inactive)"
  },
  {
    "molecule": "Oc1ccc(Cc2cc(Cc3ccc(O)cc3)cc(Cc3ccc(O)cc3)c2)cc1",
    "GI50": "> 50 µM (inactive)"
  },
  {
    "molecule": "CC(C)(C)OC(=O)NC(Cc1ccccc1)C(=O)N1CCCC1C(N)=O (stereo not drawn) (Boc-Phe-Pro-NH2; configuration not given here)",
    "GI50": "> 100 µM (inactive)"
  },
  {
    "molecule": "C=CC(C)(C)n1cc(C2=C3OC(=O)C(c4cn(C(C)(C)C=C)c5ccccc45)=C3OC2=O)c2ccccc21",
    "GI50": "> 100 µM (inactive)"
  },
  {
    "molecule": "C=CCOc1cc2c(cc1C(C)c1ccc(OC)cc1)OCO2 (stereo not given)",
    "GI50": "7.41 µM (inactive)"
  },
  {
    "molecule": "CC(=O)Oc1cc(C)c2c(c1OC(C)=O)CC1(O2)[C@@H](C)CCC2[C@@]3(C)CC[C@H](OC(C)=O)C(C)(C)C3CC[C@]21C (stereo not given in full)",
    "GI50": "3.61 µM (inactive)"
  },
  {
    "molecule": "CC1(c2ccccc2)CCN(C2CC2)CO1 (stereo not given)",
    "GI50": "13.8 µM (inactive)"
  },
  {
    "molecule": "COc1cc2c(cc1OCCN1C(=O)c3cccc4cccc(c34)C1=O)N=C[C@@H]1CCCN1C2=O",
    "GI50": "8.05 µM (inactive)"
  },
  {
    "molecule": "COc1ccc(C2Cc3cc(OC)c(OC)c(OC)c3C2=O)cc1 (stereo not given)",
    "GI50": "> 100 µM (inactive)"
  },
  {
    "molecule": "O=C1C(NCCO)=C(N2CC2)C(=O)C(NCCO)=C1N1CC1",
    "GI50": "> 100 µM (inactive)"
  }
]
